Assay System: T1, TIP-1 (human, UniProt O14907)
T1 chain: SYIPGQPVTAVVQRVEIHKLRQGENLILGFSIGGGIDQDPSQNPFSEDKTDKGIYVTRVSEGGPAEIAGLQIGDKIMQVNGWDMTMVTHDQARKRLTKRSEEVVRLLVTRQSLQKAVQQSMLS
Protocol Notes: FP, competition
pKi: −log10 of the molar value. Where no end group is shown, it is not given here.
Property Label: pKi

Below, 2 binders whose answers are already recorded.
binder="ANSRLPTSKI [ANSRLPTS[K-AEBA]I]" property_label=pKi recorded_value="< 2.30"
binder="ANSRLPTSII [iCAL42 ANSRLPTSII]" property_label=pKi recorded_value="< 2.30"

// below: pKi requested for another binder
-- ask Would you kindly share the measured pKi for ANSRLPTSK(Ac)I [ANSRLPTS[Ac-K]I] ?
-- reply < 2.30
